All figures here come from paper PMC4102965.

- testMethodNotes: Pharmacokinetics after single oral dosing, plasma and brain by LC-MS/MS
- Type: in vivo, rats
- particulars: male, SD, rat, brain, 30 mg/kg
measure: concentration at 1 h (µM)
Record the value in µM, omitting the unit from your answer.

Exam item: Would you mind telling me what concentration at 1 h value was observed for CC(C)CC(CN)CC(=O)O (stereo not shown) [pregabalin, 3-isobutyl-γ-aminobutyric acid] ?
Marked response: 12.4

---

- testMethodNotes: Pharmacokinetics after single oral dosing, plasma and brain by LC-MS/MS
- Format: in vivo, rats
- particulars: male, SD, rat, plasma, 30 mg/kg
measure: concentration at 1 h (µM)
Just the number in µM, nothing appended.

Exam item: What does the data say about its concentration at 1 h? Entry: CC(C)CC(CN)CC(=O)O (stereo not shown) [pregabalin, 3-isobutyl-γ-aminobutyric acid]
Marked response: 109
